target: UniProt:P10520; test: viability-normalized secreted streptokinase activity reduction – plasminogen activation absorbance, OD405, dose response (AID 1914); type: functional, Streptococcus pyogenes M1 GAS;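 further: secreted streptokinase activity via plasminogen activation per viability signal from cell pellet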
Sequence (P10520 whole entry): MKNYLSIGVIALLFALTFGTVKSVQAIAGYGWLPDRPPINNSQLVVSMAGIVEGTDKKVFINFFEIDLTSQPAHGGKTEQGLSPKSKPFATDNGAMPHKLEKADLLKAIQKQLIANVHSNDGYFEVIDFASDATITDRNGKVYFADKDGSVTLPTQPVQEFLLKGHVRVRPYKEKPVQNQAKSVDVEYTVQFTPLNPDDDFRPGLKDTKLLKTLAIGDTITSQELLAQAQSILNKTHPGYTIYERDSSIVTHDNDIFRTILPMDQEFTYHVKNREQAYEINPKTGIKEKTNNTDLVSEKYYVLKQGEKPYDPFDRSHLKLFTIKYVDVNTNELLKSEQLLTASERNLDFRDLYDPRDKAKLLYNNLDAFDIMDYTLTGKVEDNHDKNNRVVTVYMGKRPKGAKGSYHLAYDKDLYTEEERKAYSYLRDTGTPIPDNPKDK
Activity calls are given as the source filed them. No stated cut-off is given here; in the data, actives have a measured EC50 and inactives only a lower limit.
READOUT_NAME: EC50

1) Cc1c(Cc2ccccc2)c(=O)oc2cc(OCc3ccc(C(=O)O)cc3)ccc12 ... > 150 µM (not active)
2) O=C1c2ccc3c4c(ccc(c24)C(=O)N1c1cccc(O)c1)C(=O)N(c1cccc(O)c1)C3=O ... > 150 µM (not active)
3) Cc1nc(N)sc1N=Nc1ccc(F)cc1 ... > 150 µM (not active)
4) O=C(O)CN1C(=O)/C(=C\c2ccccc2OCc2ccc(Cl)cc2Cl)SC1=S ... 17.9 µM (inconclusive)
5) CC(CC(=O)Nc1nc2ccccc2[nH]1)c1ccccc1 (centres undefined) ... > 150 µM (not active)
6) Cc1ccc(/C=C2/Sc3ccc(C(=O)N4CCC5(CC4)OCCO5)cc3NC2=O)cc1 ... > 150 µM (not active)
7) Cc1ccc(C(=O)N/N=C/c2ccc([N+](=O)[O-])s2)cc1 ... > 150 µM (not active)
8) CCCCNc1c(-c2ccc(OC)c(SC3CCCCC3)c2)nc2cc(C)ccn12 ... 9.9 µM (active)
9) COc1ccc(N2CC(C(=O)Nc3nnc(SCc4cccnc4)s3)CC2=O)cc1 (centres undefined) ... > 150 µM (not active)
